Listing: IC50 of selected molecules
target: JAK 1 (Homo sapiens); test: Biochemical potency on JAK1, TR-FRET LANCE Ultra kinase assay (examples 1-99); conditions: ATP at Km (20 μM), read-out: JAK1 inhibitory activity (pIC50 class) (converted)
Sequence (P23458 whole entry): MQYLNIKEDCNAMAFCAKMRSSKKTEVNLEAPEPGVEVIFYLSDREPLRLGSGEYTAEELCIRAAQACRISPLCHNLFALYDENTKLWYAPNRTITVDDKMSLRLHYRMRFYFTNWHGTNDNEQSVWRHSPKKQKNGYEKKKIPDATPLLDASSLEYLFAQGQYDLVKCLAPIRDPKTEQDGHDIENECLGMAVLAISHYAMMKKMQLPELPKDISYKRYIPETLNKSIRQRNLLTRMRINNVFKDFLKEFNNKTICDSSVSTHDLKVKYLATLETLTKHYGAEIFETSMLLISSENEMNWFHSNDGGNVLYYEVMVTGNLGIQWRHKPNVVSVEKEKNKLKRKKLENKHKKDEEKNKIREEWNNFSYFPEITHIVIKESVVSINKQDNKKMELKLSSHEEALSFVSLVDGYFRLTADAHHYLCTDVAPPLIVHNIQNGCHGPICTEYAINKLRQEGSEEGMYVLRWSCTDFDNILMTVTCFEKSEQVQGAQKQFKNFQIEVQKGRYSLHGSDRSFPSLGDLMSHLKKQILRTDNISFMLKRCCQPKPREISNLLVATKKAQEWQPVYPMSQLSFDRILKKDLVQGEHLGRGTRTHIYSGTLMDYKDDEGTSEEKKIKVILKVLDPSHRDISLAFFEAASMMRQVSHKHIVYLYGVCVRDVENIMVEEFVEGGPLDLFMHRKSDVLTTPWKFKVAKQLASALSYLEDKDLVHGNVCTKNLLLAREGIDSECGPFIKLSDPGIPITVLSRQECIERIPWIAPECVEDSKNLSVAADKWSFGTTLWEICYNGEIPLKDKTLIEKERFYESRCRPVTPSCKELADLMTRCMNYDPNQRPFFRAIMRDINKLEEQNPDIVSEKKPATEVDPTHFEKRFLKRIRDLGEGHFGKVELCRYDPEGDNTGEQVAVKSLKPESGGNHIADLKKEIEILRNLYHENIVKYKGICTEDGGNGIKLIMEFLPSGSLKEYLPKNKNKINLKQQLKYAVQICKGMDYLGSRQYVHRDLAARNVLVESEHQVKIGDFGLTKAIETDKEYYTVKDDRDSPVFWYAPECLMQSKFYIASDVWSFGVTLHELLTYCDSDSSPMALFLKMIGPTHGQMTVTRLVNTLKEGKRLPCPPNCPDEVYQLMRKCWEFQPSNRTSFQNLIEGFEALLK

Some entries whose results are on file:
> print(dat)
                                item.smiles  experimental.readout         measured
1  Cc1nn(-c2cc(C#N)ccc2OC(F)F)c2cc(-c3cnn4cccnc34)ncc12                  IC50  5.01 to 50.1 nM
2  COc1cc(O)c(Cl)cc1-n1nc(C)c2cnc(-c3cnn4cccnc34)cc21                  IC50        ≤ 5.01 nM
3  COc1ccc(F)cc1-n1nc(C(=O)NCCCN(C)C)c2cnc(Nc3ncc[nH]c3=O)cc21                  IC50  5.01 to 50.1 nM
4  COc1ccc(C(F)(F)F)cc1-n1nc(C)c2cnc(-c3cnn4cccnc34)cc21                  IC50  5.01 to 50.1 nM
5  COc1ccc(S(=O)(=O)NCCCN2CCN(C)CC2)cc1-n1nc(C)c2cnc(-c3cnn4cccnc34)cc21                  IC50        > 50.1 nM
6  COc1cc(O)c(C)cc1-n1nc(C)c2cnc(-c3cnn4cccnc34)cc21                  IC50        ≤ 5.01 nM
7  Cc1ccc(OC(F)F)c(-n2nc(C)c3cnc(-c4cnn5cccnc45)cc32)c1                  IC50  5.01 to 50.1 nM

Per the records, this molecule ( "Cc1nn(-c2cc(SCC(=O)NCCO)ccc2OC(F)F)c2cc(-c3cnn4cccnc34)ncc12" ) has IC50 equal to 5.01 to 50.1 nM

====

molecular target: JAK 2 (Homo sapiens); assay: Biochemical potency on JAK2, TR-FRET LANCE Ultra kinase assay (examples 1-99); conditions: ATP at Km (0.7 μM), read-out: JAK2 inhibitory activity (pIC50 class) (converted)
Sequence (O60674 whole entry): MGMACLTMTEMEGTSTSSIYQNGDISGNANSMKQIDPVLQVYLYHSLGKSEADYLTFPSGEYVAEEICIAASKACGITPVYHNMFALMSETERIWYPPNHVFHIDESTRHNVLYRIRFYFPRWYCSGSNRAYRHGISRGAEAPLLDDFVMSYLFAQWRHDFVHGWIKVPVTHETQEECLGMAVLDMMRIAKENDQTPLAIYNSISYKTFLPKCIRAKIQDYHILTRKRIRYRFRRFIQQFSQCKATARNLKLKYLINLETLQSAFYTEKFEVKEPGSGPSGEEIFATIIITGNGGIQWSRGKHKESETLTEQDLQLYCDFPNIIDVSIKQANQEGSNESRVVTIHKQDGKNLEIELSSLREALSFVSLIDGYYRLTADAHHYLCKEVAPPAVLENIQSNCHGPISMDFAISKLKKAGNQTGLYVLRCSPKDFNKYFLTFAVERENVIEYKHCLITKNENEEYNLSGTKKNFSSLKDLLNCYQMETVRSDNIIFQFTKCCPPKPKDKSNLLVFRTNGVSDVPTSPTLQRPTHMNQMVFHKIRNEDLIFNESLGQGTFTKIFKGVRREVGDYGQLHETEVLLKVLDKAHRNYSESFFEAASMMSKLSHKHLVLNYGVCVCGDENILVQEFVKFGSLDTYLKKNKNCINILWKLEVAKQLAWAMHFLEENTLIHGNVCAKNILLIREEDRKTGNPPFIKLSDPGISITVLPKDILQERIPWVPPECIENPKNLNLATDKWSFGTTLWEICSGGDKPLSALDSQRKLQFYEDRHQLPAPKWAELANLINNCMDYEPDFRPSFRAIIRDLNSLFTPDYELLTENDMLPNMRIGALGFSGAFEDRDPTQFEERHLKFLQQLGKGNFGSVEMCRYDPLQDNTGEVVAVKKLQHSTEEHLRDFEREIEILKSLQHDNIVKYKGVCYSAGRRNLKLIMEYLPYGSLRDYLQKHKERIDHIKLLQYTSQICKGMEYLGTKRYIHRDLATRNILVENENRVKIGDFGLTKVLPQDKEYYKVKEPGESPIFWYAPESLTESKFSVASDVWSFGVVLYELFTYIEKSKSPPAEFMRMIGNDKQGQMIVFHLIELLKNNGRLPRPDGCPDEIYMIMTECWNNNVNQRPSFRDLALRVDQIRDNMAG
experimental readout: IC50

Per the records, this compound ( "CNc1nn(-c2cc(S(C)(=O)=O)ccc2OC)c2cc(-c3cnn4cccnc34)ncc12" ) has IC50 equal to ≤ 5.01 nM

Per the records, this compound ( "COc1ccc(Cl)cc1-n1nc(OC)c2cnc(-c3cnn4cccnc34)cc21" ) has IC50 equal to 5.01 to 50.1 nM

Per the records, this compound ( "COc1ccc(Cl)cc1-n1ncc2c(N(C)C)nc(-c3cnn4cccnc34)cc21" ) has IC50 equal to 5.01 to 50.1 nM

====

target: UniProt P23458; test: Biochemical potency on JAK1, TR-FRET LANCE Ultra kinase assay (examples 1-99); details: ATP at Km (20 μM), read-out: JAK1 inhibitory activity (pIC50 class) (converted)
experimental readout: IC50

> print(dat)
                                item.smiles         measured
1  Cc1nn(-c2cc(Cl)ccc2OC(F)F)c2cc(Nc3ncc[nH]c3=O)ncc12        ≤ 5.01 nM
2  CN(C)[C@H]1C[C@@H](NC(=O)c2nn(-c3cc(Cl)ccc3OC(F)F)c3cc(-c4cnn5cccnc45)ncc23)C1  5.01 to 50.1 nM
3  COc1ccc(Cl)cc1-n1ncc2c(N)nc(-c3cnn4cccnc34)cc21  5.01 to 50.1 nM

Per the records, this compound ( "CNc1nn(-c2cc(Cl)ccc2OC)c2cc(-c3cnn4cccnc34)ncc12" ) has IC50 equal to ≤ 5.01 nM
